From: ChEMBL document CHEMBL1641417

Target entity: DNA topoisomerase 2-alpha (Homo sapiens) (UniProt P11388)
Sequence (P11388 whole entry): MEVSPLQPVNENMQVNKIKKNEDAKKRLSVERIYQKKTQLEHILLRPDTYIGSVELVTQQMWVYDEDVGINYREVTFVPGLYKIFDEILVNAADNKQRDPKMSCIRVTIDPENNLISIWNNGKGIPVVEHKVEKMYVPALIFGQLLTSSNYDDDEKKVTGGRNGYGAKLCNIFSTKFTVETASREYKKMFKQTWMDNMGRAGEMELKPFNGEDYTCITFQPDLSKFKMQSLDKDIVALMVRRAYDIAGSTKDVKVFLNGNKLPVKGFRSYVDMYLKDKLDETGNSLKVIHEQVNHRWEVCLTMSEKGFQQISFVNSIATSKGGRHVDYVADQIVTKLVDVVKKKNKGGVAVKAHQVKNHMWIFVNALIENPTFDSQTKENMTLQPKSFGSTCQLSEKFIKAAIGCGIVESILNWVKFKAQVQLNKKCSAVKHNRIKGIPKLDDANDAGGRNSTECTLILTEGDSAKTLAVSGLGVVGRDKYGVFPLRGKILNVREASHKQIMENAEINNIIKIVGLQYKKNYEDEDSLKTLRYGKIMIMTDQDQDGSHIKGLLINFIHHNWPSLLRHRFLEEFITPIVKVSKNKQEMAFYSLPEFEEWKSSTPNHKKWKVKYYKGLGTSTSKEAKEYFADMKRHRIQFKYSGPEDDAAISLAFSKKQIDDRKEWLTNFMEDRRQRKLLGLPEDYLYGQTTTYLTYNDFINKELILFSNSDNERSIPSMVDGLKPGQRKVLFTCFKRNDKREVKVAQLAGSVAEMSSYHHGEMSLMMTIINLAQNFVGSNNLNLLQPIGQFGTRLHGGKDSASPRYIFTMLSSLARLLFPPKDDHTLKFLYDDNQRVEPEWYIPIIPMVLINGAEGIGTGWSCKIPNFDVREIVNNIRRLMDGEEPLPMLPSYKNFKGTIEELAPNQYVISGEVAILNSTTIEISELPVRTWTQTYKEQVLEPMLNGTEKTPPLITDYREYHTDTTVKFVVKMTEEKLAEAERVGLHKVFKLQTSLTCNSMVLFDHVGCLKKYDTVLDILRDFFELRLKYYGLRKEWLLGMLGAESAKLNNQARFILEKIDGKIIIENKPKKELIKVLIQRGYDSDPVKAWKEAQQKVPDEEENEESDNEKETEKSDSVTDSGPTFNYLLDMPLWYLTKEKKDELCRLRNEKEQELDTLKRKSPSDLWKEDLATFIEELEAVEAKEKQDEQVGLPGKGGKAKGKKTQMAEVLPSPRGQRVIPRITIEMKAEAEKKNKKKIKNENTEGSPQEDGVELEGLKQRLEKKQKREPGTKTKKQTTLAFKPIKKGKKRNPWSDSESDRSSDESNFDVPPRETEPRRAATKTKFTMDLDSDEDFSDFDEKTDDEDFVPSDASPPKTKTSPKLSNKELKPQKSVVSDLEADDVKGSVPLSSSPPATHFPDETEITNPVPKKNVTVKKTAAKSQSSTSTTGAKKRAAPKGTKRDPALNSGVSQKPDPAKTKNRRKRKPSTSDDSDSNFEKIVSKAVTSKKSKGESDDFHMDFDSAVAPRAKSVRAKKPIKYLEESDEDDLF
Assay details: Inhibition of human recombinant DNA topoisomerase 2alpha-mediated DNA cleavage assessed as decrease in relaxation of supercoiled plasmid substrate DNA at 100 uM after 30 mins by agarose gel electrophoresis
Quantity kind: inhibition (%)

> print(dat)
                                smiles.code                             target.entity  quantity.kind  unit.tag  obs.value
1  C[C@@H]1O[C@@H](OCC#Cc2c(-c3ccccc3)sc3ccccc23)C[C@H](N)[C@@H]1O  DNA topoisomerase 2-alpha (Homo sapiens) (UniProt P11388)     inhibition         %        5.8
2  C[C@@H]1O[C@@H](OCC#Cc2c(-c3ccccc3)[nH]c3ccccc23)C[C@H](N)[C@@H]1O  DNA topoisomerase 2-alpha (Homo sapiens) (UniProt P11388)     inhibition         %        7.1
3  Cc1ccc(S(=O)(=O)n2c(-c3ccccc3)c(C#CCO[C@H]3CC[C@H](N)[C@H](C)O3)c3ccccc32)cc1  DNA topoisomerase 2-alpha (Homo sapiens) (UniProt P11388)     inhibition         %       86.2
4  C[C@@H]1O[C@@H](OCC#Cc2c(-c3ccccc3)sc3ccccc23)C[C@H](N)[C@H]1O  DNA topoisomerase 2-alpha (Homo sapiens) (UniProt P11388)     inhibition         %       22.2
5  C[C@@H]1O[C@@H](OCC#Cc2c(-c3ccccc3)oc3ccccc23)C[C@H](N)[C@H]1O  DNA topoisomerase 2-alpha (Homo sapiens) (UniProt P11388)     inhibition         %        5.5
6  C[C@@H]1O[C@@H](OCC#Cc2c(-c3ccccc3)sc3ccccc23)CC[C@@H]1N  DNA topoisomerase 2-alpha (Homo sapiens) (UniProt P11388)     inhibition         %       16.4
7  C[C@@H]1O[C@@H](OCC#Cc2c(-c3ccccc3)[nH]c3ccccc23)CC[C@@H]1N  DNA topoisomerase 2-alpha (Homo sapiens) (UniProt P11388)     inhibition         %       39.5
8  Cc1ccc(S(=O)(=O)n2c(-c3ccccc3)c(C#CCO[C@H]3C[C@H](N)[C@H](O)[C@H](C)O3)c3ccccc32)cc1  DNA topoisomerase 2-alpha (Homo sapiens) (UniProt P11388)     inhibition         %        101

###

Tested on: HepG2
Assay details: Cytotoxicity against human HepG2 cells assessed as cell viability at 100 uM after 72 hrs by MTS assay
Conditions used: HepG2, 72 h
Quantity kind: viability at 100 µM (%)

> print(dat)
                              smiles.code        quantity.kind  obs.value
1  C#CCO[C@H]1C[C@H](N)[C@H](O)[C@H](C)O1  viability at 100 µM        101
2               Ic1c(-c2ccccc2)sc2ccccc12  viability at 100 µM         87
3           OCC#Cc1c(-c2ccccc2)sc2ccccc12  viability at 100 µM         17

###

// reported Activity for each item listed
Test system: Nucleic Acid
Assay details: Binding affinity to DNA by ethidium bromide staining-based FID assay
Parameters: concentration or dose not given beside the values
Quantity kind: Activity (%)

> print(dat)
                                smiles.code  target.entity  obs.value
1  Cc1ccc(S(=O)(=O)n2c(-c3ccccc3)c(C#CCO[C@H]3CC[C@H](N)[C@H](C)O3)c3ccccc32)cc1   Nucleic Acid       38.6
2  C[C@@H]1O[C@@H](OCC#Cc2c(-c3ccccc3)[nH]c3ccccc23)C[C@H](N)[C@H]1O   Nucleic Acid       76.5
3  C[C@@H]1O[C@@H](OCC#Cc2c(-c3ccccc3)sc3ccccc23)CC[C@@H]1N   Nucleic Acid       79.9
4  C[C@@H]1O[C@@H](OCC#Cc2c(-c3ccccc3)oc3ccccc23)CC[C@@H]1N   Nucleic Acid       68.5
